GluR pEC 50: recorded values
target: human glucagon receptor (GCGR) (human, UniProt P47871 26-477); assay: cell-based or functional assay
Where no end group is shown, it is not given here. [ ]: non-standard residue; d: D form. Formula III = not defined here; Formula II = not defined here; Aib = CC(C)(N)C(=O)O
Numeric answer plus unit only.

Example results:
{"columns": ["binder", "GluR pEC 50"],
 "data": [
  ["YSHGTFTSDYSKYLDK(Formula II)ARAQEFVKWLEDEPSSGAPPPS-NH2 (reading uncertain) [Compound B43]", "11.1 pEC50"],
  ["YSHGTFTSDYSKYLD[Aib]KSAQEFVK(Formula III)WLEDEPSSGAPPPS-OH (reading uncertain) [Compound B14]", "9.3 pEC50"],
  ["YSHGTFTSDYSKYLD[Aib]KSAQEFV[Aib]WLEDEPSSK(Formula II)APPPS-OH (reading uncertain) [Compound B9]", "11.1 pEC50"],
  ["YSHGTFTSDK(Formula II)SKYLD[Aib]KYAQEFV[Aib]WLEDEPSSGAPPPS-OH (reading uncertain) [Compound B4]", "9.1 pEC50"]
]}

Query binder follows.
Given the binder WSQGTFTSDYSKYLD[Aib]KRAQEFVK(Formula II)WLEDEPSSGAPPPS-OH (reading uncertain) [Compound B18] , what is its reported GluR pEC 50?
10.2 pEC50
